The measured values listed here are drawn from patent US20250289788A1.

Kindly supply the reported chemical damage to transplanted rice OS (score 0-10) values for the records listed here.
Test system: Oryza sativa (OS)
Experiment description: Comparative Example: chemical damage to transplanted rice under flooding conditions
Format: in vivo
Run parameters: 31 g a.i./ha, applied dropwise to water surface, day 21 after treatment

Can you share its chemical damage to transplanted rice OS (score 0-10)? I mean this molecule: CCOC(=O)N(c1ccccc1CN1CCCCC1=O)S(=O)(=O)C(F)(F)F 3

Given the entry O=C1CCCCN1Cc1ccccc1NS(=O)(=O)C(F)(F)F , report its measured chemical damage to transplanted rice OS (score 0-10). 6

Tell me the measured chemical damage to transplanted rice OS (score 0-10) of O=C1c2ccccc2CCN1Cc1ccccc1NS(=O)(=O)C(F)(F)F , please. 0

Fill blank: measured chemical damage to transplanted rice OS (score 0-10) of the molecule CCOC(=O)N(c1ccccc1CN1CCc2ccccc2C1=O)S(=O)(=O)C(F)(F)F is ____. 0

====

Assignment: determine reported chemical damage to transplanted rice OS (score 0-10) for the given molecules.
Tested on: Oryza sativa (OS)
Experiment description: Comparative Example: chemical damage to transplanted rice under flooding conditions
Assay type: in vivo
Run parameters: 63 g a.i./ha, applied dropwise to water surface, day 21 after treatment
Description: The control compound a is described as Compound No. III-1 on page 245 of PLT 5, and the control compound b is described as Compound No. III-9 on page 245 of PTL 5. […] As an example, herbicidal efficacy against critical paddy field weeds such as Monochoria vaginalis (MV) and Ammannia multiflora (AM) as well as Oryza sativa (OS) chemical damage were compared and are specifically described below as a Comparative Example. [Comparative Example] […]
# respond with the number and nothing more

Fill in: chemical damage to transplanted rice OS (score 0-10) of O=C1c2ccccc2CCN1Cc1ccccc1NS(=O)(=O)C(F)(F)F is ___ 0

Form field: reported chemical damage to transplanted rice OS (score 0-10) of CCOC(=O)N(c1ccccc1CN1CCc2ccccc2C1=O)S(=O)(=O)C(F)(F)F 0

Which measured chemical damage to transplanted rice OS (score 0-10) value corresponds to O=C1CCCCN1Cc1ccccc1NS(=O)(=O)C(F)(F)F ? 10

I am curious: what chemical damage to transplanted rice OS (score 0-10) value has been reported for CCOC(=O)N(c1ccccc1CN1CCCCC1=O)S(=O)(=O)C(F)(F)F ? 8
